The reported numbers originate from patent US9884839B2.

# measured-target: human 17β-HSD1 (Homo sapiens, UniProt P14061)
# Construct: For the partial purification of 17β-HSD1, the cytosolic fraction was precipitated with ammonium sulfate; from tissue; host or cells: human placenta, cytosolic fraction, ammonium sulfate precipitate
# Sequence (P14061 whole entry): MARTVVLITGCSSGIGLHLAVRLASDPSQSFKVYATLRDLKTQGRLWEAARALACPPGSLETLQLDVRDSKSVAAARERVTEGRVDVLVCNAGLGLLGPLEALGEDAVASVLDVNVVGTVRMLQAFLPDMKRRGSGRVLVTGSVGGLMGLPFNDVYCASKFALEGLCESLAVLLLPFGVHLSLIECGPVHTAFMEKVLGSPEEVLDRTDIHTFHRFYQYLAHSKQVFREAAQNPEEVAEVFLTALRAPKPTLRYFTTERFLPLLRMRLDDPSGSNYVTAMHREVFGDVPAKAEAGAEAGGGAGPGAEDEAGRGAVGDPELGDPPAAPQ
# procedure-summary: Inhibition of human 17β-HSD1 (conversion of [3H]-E1 to E2, HPLC radioflow detection)
# Type: biochemical
# stated-conditions: read-out: % inhibition h17β-HSD1 @ 10 nM
# maps each entry to its inhibition at 0.01 µM
The reply should contain only the number, in %.

# count of solved cases: 6
[[record]]
smiles_str = "COc1cccc(-c2ccc(C(=O)c3cc(F)c(F)c(O)c3F)s2)c1"
unit_spec = "%"
numeric_value = 75

[[record]]
smiles_str = "Nc1ccccc1-c1ccc(C(=O)c2cc(F)c(F)c(O)c2F)s1"
unit_spec = "%"
numeric_value = 12

[[record]]
smiles_str = "O=C(c1ccc(-c2cccc3[nH]ccc23)s1)c1cc(F)c(F)c(O)c1F"
unit_spec = "%"
numeric_value = 93

[[record]]
smiles_str = "NS(=O)(=O)c1cccc(-c2ccc(C(=O)c3c(F)ccc(O)c3F)s2)c1"
unit_spec = "%"
numeric_value = 34

[[record]]
smiles_str = "CC(=O)Nc1cccc(-c2ccc(C(=O)c3cc(F)c(F)c(O)c3F)s2)c1"
unit_spec = "%"
numeric_value = 31

[[record]]
smiles_str = "O=C(c1ccc(-c2ccc3cccnc3c2)s1)c1cc(F)c(F)c(O)c1F"
unit_spec = "%"
numeric_value = 22


Query string: Lab note: record inhibition at 0.01 µM of O=C(c1ccc(-c2cccnc2)s1)c1cc(F)c(F)c(O)c1F tested on human 17β-HSD1 (Homo sapiens, UniProt P14061).
Result string: 15

Query string: Lab note: record inhibition at 0.01 µM of O=C(c1ccc(-c2ccccc2O)s1)c1cc(F)c(F)c(O)c1F tested on human 17β-HSD1 (Homo sapiens, UniProt P14061).
Result string: 19

---

# measured-target: mouse 17β-HSD2 (Mus musculus, UniProt P51658)
# Construct: The pellet fractions containing the microsomal 17β-HSD2 were used for the determination of E1 formation; from tissue; host or cells: mouse liver, microsomal fraction
# Sequence (P51658 whole entry): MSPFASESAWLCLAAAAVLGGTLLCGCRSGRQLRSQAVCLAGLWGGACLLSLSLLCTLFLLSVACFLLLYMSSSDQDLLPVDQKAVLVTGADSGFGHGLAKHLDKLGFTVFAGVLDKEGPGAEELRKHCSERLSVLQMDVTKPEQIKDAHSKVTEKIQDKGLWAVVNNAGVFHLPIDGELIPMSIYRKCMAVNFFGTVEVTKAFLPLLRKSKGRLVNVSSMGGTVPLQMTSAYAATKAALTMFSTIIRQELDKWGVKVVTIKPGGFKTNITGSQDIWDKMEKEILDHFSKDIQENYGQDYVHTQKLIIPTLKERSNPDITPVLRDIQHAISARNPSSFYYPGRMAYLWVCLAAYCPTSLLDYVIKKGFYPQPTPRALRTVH
# procedure-summary: Inhibition of mouse 17β-HSD2 (liver microsomal fraction)
# Format: biochemical
# stated-conditions: read-out: % inhibition m17β-HSD2 @ 1 μM
quantity-name: inhibition at 1 µM (%)
The reply should contain only the number, in %.

[[record]]
compound = "Cc1c(O)cccc1C(=O)c1ccc(-c2ccc(F)cc2F)s1 [B, reference compound]"
quantity_name = "inhibition at 1 µM"
unit_spec = "%"
numeric_value = 18


Query string: Item O=C(c1cccc(O)c1)c1ccc(-c2ccc(O)c(Cl)c2)s1 [D, reference compound] : provide inhibition at 1 µM
Result string: 9

Query string: Item O=C(c1ccc(-c2ccc(O)c(Cl)c2)s1)c1c(F)ccc(O)c1F [Compound 20] : provide inhibition at 1 µM
Result string: 95

Query string: Item Cc1c(O)cccc1C(=O)c1ccc(-c2ccc(O)c(Cl)c2)s1 [E, reference compound] : provide inhibition at 1 µM
Result string: 92

Query string: Item O=C(c1ccc(Br)s1)c1c(F)ccc(O)c1F [Compound 1e] : provide inhibition at 1 µM
Result string: 80

Query string: Item O=C(c1ccc(-c2ccc(F)cc2F)s1)c1cccc(O)c1F [C, reference compound] : provide inhibition at 1 µM
Result string: 75

Query string: Item O=C(c1ccc(Br)s1)c1cc(F)c(F)c(O)c1F [Compound 1g] : provide inhibition at 1 µM
Result string: 44

---

# maps each entry to its inhibition at 1 µM
# measured-target: mouse 17β-HSD1 (Mus musculus, UniProt P51656)
# Construct: made in house; host or cells: HEK293 cells, transient transfection; 1,000 g supernatant of the cell lysate
# Sequence (P51656 whole entry): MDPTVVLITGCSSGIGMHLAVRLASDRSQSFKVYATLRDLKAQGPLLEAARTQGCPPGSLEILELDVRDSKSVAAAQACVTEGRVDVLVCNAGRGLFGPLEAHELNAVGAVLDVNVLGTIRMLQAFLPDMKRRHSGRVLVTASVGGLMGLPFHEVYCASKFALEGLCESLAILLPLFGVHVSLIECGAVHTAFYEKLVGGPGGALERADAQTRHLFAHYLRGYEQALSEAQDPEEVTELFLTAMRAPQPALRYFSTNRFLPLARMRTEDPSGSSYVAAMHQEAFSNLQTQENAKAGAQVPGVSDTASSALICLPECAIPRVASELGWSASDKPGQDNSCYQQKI
# procedure-summary: Inhibition of mouse 17β-HSD1 (recombinant, HEK293 lysate)
# Format: biochemical
# stated-conditions: read-out: Inhibition @ 1 μM m17β-HSD1
The reply should contain only the number, in %.

# count of solved cases: 5
[[record]]
smiles_str = "Nc1cccc(-c2ccc(C(=O)c3c(F)ccc(O)c3F)s2)c1"
numeric_value = 30

[[record]]
smiles_str = "O=C(c1ccc(-c2ccc(F)cc2F)s1)c1cc(F)c(F)c(O)c1F"
numeric_value = 28

[[record]]
smiles_str = "COc1c(Cl)cc(-c2ccc(C(=O)c3c(F)ccc(O)c3F)s2)cc1CN1CCN(C(C)=O)CC1"
numeric_value = 37

[[record]]
smiles_str = "O=C(c1ccc(-c2cccc(NS(=O)(=O)c3ccccc3C(F)(F)F)c2)s1)c1cc(F)c(F)c(O)c1F"
numeric_value = 81

[[record]]
smiles_str = "O=C(c1ccc(-c2cc(Cl)c(O)c(Cl)c2)s1)c1c(F)ccc(O)c1F"
numeric_value = 23


Query string: Item Cc1cc(C(=O)c2c(F)ccc(O)c2F)sc1-c1ccc(O)c(Cl)c1 : provide inhibition at 1 µM
Result string: 38

Query string: Item Nc1cccc(-c2ccc(C(=O)c3cc(F)c(F)c(O)c3F)s2)c1 : provide inhibition at 1 µM
Result string: 9

Query string: Item N#Cc1cc(-c2ccc(C(=O)c3c(F)ccc(O)c3F)s2)ccc1O : provide inhibition at 1 µM
Result string: 23

---

# measured-target: human 17β-HSD2 (Homo sapiens)
# Construct: 17β-HSD2 was obtained from the microsomal fraction; from tissue; host or cells: human placenta, microsomal fraction
# Sequence (P37059 1-387): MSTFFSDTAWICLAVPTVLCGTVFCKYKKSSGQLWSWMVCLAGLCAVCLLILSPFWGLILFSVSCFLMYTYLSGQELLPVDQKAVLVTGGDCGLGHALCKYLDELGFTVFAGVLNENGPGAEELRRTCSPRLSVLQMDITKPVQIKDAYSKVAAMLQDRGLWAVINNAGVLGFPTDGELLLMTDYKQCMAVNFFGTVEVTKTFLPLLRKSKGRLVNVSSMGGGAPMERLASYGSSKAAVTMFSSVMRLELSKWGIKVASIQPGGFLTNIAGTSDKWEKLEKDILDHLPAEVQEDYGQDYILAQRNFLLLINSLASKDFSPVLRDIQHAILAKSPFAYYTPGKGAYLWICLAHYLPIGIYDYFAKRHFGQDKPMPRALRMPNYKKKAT
# procedure-summary: Inhibition of human 17β-HSD2 (conversion of [3H]-E2 to E1)
# Format: biochemical
# stated-conditions: read-out: IC50 [nM] h17β-HSD2
# maps each entry to its log10(IC50)
Note the log scale: values are log10 of IC50 expressed in nM.

# count of solved cases: 3
[[record]]
molecule = "O=C(c1ccc(-c2ccc(O)c(F)c2)s1)c1cc(F)c(F)c(O)c1F"
measured_target = "human 17β-HSD2 (Homo sapiens)"
numeric_value = 0.48

[[record]]
molecule = "O=C(c1ccc(-c2ccc(O)c(Cl)c2)s1)c1c(F)ccc(O)c1F"
measured_target = "human 17β-HSD2 (Homo sapiens)"
numeric_value = 1.30

[[record]]
molecule = "Cc1cc(-c2ccc(C(=O)c3c(F)ccc(O)c3F)s2)cc(C)c1O"
measured_target = "human 17β-HSD2 (Homo sapiens)"
numeric_value = 0.85


Query string: Lab note: record log10(IC50) of O=C(c1ccc(-c2ccc(O)c(Cl)c2)s1)c1cc(F)c(F)c(O)c1F tested on human 17β-HSD2 (Homo sapiens).
Result string: 0.49

Query string: Lab note: record log10(IC50) of O=C(c1ccc(-c2ccc3cc[nH]c3c2)s1)c1cc(F)c(F)c(O)c1F tested on human 17β-HSD2 (Homo sapiens).
Result string: 0.88

Query string: Lab note: record log10(IC50) of N#Cc1cc(-c2ccc(C(=O)c3c(F)ccc(O)c3F)s2)ccc1O tested on human 17β-HSD2 (Homo sapiens).
Result string: 1.46

Query string: Lab note: record log10(IC50) of O=C(c1ccc(-c2cc(F)c(OC(F)F)c(F)c2)s1)c1c(F)ccc(O)c1F tested on human 17β-HSD2 (Homo sapiens).
Result string: 1.56

Query string: Lab note: record log10(IC50) of COc1c(Cl)cc(-c2ccc(C(=O)c3c(F)ccc(O)c3F)s2)cc1CN1CCNCC1 tested on human 17β-HSD2 (Homo sapiens).
Result string: 1.41

Query string: Lab note: record log10(IC50) of Cc1cc(-c2ccc(C(=O)c3cccc(O)c3C)s2)cc(C)c1O [G, reference compound] tested on human 17β-HSD2 (Homo sapiens).
Result string: 2.38

Query string: Lab note: record log10(IC50) of Cc1cc(C(=O)c2c(F)ccc(O)c2F)sc1-c1ccc(O)c(Cl)c1 tested on human 17β-HSD2 (Homo sapiens).
Result string: 1.04

Query string: Lab note: record log10(IC50) of O=C(c1ccc(-c2ccc(F)cc2F)s1)c1cc(F)c(F)c(O)c1F tested on human 17β-HSD2 (Homo sapiens).
Result string: 0.15

Query string: Lab note: record log10(IC50) of Cc1cc(-c2ccc(C(=O)c3cc(F)cc(O)c3C)s2)cc(C)c1O tested on human 17β-HSD2 (Homo sapiens).
Result string: 1.70

Query string: Lab note: record log10(IC50) of NC(=O)c1cccc(-c2ccc(C(=O)c3cc(F)c(F)c(O)c3F)s2)c1 tested on human 17β-HSD2 (Homo sapiens).
Result string: 0.83

Query string: Lab note: record log10(IC50) of O=C(c1ccc(Br)s1)c1cc(F)c(F)c(O)c1F tested on human 17β-HSD2 (Homo sapiens).
Result string: 1.43

Query string: Lab note: record log10(IC50) of CC(=O)N1CCN(Cc2cc(-c3ccc(C(=O)c4c(F)ccc(O)c4F)s3)cc(Cl)c2O)CC1 tested on human 17β-HSD2 (Homo sapiens).
Result string: 1.04

Query string: Lab note: record log10(IC50) of COc1ccc(-c2ccc(C(=O)c3c(F)ccc(O)c3F)s2)cc1Cl tested on human 17β-HSD2 (Homo sapiens).
Result string: 1.04

Query string: Lab note: record log10(IC50) of COc1ccc(-c2sc(C(=O)c3c(F)ccc(O)c3F)cc2C)cc1Cl tested on human 17β-HSD2 (Homo sapiens).
Result string: 1.72

Query string: Lab note: record log10(IC50) of O=C(c1ccc(-c2cccc(Cl)c2O)s1)c1c(F)ccc(O)c1F tested on human 17β-HSD2 (Homo sapiens).
Result string: 1.46
